test: Color change inhibition (Gardner Color Scale); assay type: physicochemical; conditions: additive 0.2 % w/w in 10% ACC, 10% calcium chloride, Kathon CG/ICP formulation; 54° C. for two weeks
measurementName: Color (Gardner Scale)

Request: Give me measured Color (Gardner Scale), please, for this molecule: `O=C(O)/C=C/C(=O)O`
Response: 4-5

Request: Fill in reported Color (Gardner Scale) for this entry: `NC(N)=O`
Response: 5-6

Request: Answer with reported Color (Gardner Scale) of CC(=O)[O-].[Na+] [Sodium acetate]
Response: 4-5

Request: In one line, give reported Color (Gardner Scale) of the entry `O=C1O[C@H]([C@@H](O)CO)C(O)=C1O` .
Response: >18

Request: Given O=C([O-])CC(O)(CC(=O)[O-])C(=O)[O-].[Na+].[Na+].[Na+] [Sodium citrate] , respond with its Color (Gardner Scale).
Response: 4-5

Request: Return reported Color (Gardner Scale). Input molecule: `O=C(O)CC(O)(CC(=O)O)C(=O)O`
Response: 4-5
